Form field: pKd (one value per entry).
# STUDY_SYSTEM: T1, RSV F subtype B, furin-cleaved ectodomain stabilized in the prefusion conformation (DS-Cav1) (Respiratory syncytial virus subtype B)
# T1 construct: extracellular domain; Trimeric soluble antigen; also called Prefusion subtype B
# MEASUREMENT_DESCRIPTION: BLI, IgG on AHQ sensor, 100 nM antigen
pKd: −log10 of the molar value.

BINDER	pKd
ADI-18936 (antibody, V domains shown, full-length IgG from yeast) VH: EVQLLESGAEVKKPGASVRVSCKASGYTFTDYFMNWVRQAPGGGLEWMGWVNPLSGATKYAQKFQGRVTMTTDTSITTGYLDLRSLRVDDTAIYFCASQSSPYTPGAMGVWGQGTTVTVSS VL: DIQVTQSPSSLSASVGDRVTITCRASQSISGYLSWYQQKPGKAPNLLIYATSNLYSGVPSRFSGRDSGTDFTLTITSLQPEDFATYFCQLNSGALFTFGPGTKVEIK	9.53
ADI-18890 (antibody, V domains shown, full-length IgG from yeast) VH: QVQLVQSGAEVKRPGSSVKVSCKASGGTFRGYHISWLRQAPGQGLEWLGGITHLFGTVSYAPKFQGRVTITADASTGTLYMVLNSLKPEDTAIYYCARDAYEVWTGSYLPPFDYWGQGTLVTVSS VL: ETTLTQSPGTLSLSPGERATLSCRASQTVTSNYLAWYQQKPGQAPRLLIYDALTRATGIPDRFSGSGSGTDFTLTISRLEPEDFALYYCQQYGSSFLTFGGGTKVDIK	9.34
ADI-18878 (antibody, V domains shown, full-length IgG from yeast; also called Antibody Number 235; Ab # 235) VH: QVQLQESGPRLVKPSQTLSLICDVSGGSIGSGDHYWSWIRQPPGKGLEWIGYIYYSGTTYYNPSLKSRVTISADTSKNQLSLKLSSVTAADTAIYFCARDGGYDHVWGTHRYFDKWGQGTLVTVSS VL: EIVLTQSPGTLSLSPGERATLSCRASQSVSNSYLAWYQQKPGQAPRLLIYGVSTRATGIPDRFSGSGSGTDFTLTISRLEPEDFAMYHCQQYGASPWTFGQGTKVDIK	8.24
ADI-18926 (antibody, V domains shown, full-length IgG from yeast; also called Antibody Number 280; Ab # 280) VH: EVQLVESGAEVKKPGASVKVSCQTSGYTFSHFGVTWIRQAPGQGLEWLGWISAYNGNTDYADKLQGRLTMTTDTSTNTAYMELRSLRSDDTAVYYCARDPPASAAAMLDYWGQGTLVTVSS VL: DIVMTQSPLSLAVTLGQPASISCKSSQGLEYTDGNTYLSWFQQRPGQSPRRLIYKISNRDSGVPDRFSGSGSGTDFTLRISRVEAEDVGVYYCMQGTHGRGISFGPGTKVDIK	9.60
ADI-18919 (antibody, V domains shown, full-length IgG from yeast) VH: QVQLQESGPGLEKPSQTLSLTCTVSRGSIRIGGYFWSWIRQHPGKGLEWLGYISNDGATDYNPSLRSRLAISADTSKNQFSLTLRSVTAADTAIYYCARTSYAGRMLDRWGQGILVTVSS VL: DIRVTQSPVSLPVTPGEPASISCRSSQSLLHSNGNNYLDWYLQKPGQSPQLLIYMGSYRASGVPDRFSGSGSGTDFTLKISRVEAEDVGVYYCMQGLQIPWTFGQGTKLEIK	9.79
